# test system: T1, soluble mouse GPNMB (recombinant extracellular domain) (mouse, UniProt Q99P91 23-502)
# T1 construct: also called moGPNMB; not shown: C-terminal polyhistidine or Avi-His tag
# T1 sequence: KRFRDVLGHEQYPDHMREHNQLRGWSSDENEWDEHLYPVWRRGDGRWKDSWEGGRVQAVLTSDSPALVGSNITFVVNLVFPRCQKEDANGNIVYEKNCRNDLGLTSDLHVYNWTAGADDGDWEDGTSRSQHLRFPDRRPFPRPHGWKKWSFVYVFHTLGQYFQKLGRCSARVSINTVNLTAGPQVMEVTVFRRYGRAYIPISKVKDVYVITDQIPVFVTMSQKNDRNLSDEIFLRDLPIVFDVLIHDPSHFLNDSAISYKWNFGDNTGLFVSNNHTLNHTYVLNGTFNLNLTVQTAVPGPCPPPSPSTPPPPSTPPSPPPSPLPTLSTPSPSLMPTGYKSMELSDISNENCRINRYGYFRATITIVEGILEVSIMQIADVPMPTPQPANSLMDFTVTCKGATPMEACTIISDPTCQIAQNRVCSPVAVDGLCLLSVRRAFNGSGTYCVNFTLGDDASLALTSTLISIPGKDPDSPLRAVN
# assay explanation: SPR Biacore, IgG captured
result type: koff (s⁻¹)
Respond numerically; units are s⁻¹ and should not be typed.

For this binder ( anti-GPNMB antibody GPN-86 (antibody, V domains shown) VH: QVQLQESGPGLVKPSETLSLTCTVSGISITTGNYRWSWIRQPPGKGLEWIGYIDYSGTITYNPSLKSRVTITRDTSKNQFSLELSSVTAADTAVYYCARDLTHWYFDVWGQGTLVTVSS VL: DIVMTQSPDSLAVSLGERATINCKSSRSVDYYGIGFLNWYQQKPGQPPKLLIYATSKQGSGVPDRFSGSGSGTDFTLTISSLQAEDVAVYYCQQQKEVPPTFGGGTKVEIK ), measured koff is 0.00023

For this binder ( anti-GPNMB antibody GPN-91 (antibody, V domains shown) VH: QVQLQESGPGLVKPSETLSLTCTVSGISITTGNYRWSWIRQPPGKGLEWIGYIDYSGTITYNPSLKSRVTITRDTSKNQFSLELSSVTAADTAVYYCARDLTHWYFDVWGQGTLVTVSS VL: DIVMTQSPDSLAVSLGERATINCKSSRSVDYYGIGFLNWYQQKPGQPPKLLIYATSHQGSGVPDRFSGSGSGTDFTLTISSLQAEDVAVYYCQQQKERPPTFGGGTKVEIK ), measured koff is 0.00014

For this binder ( anti-GPNMB antibody GPN-90 (antibody, V domains shown) VH: QVQLQESGPGLVKPSETLSLTCTVSGISITTGNYRWSWIRQPPGKGLEWIGYIDYSGTITYNPSLKQRVTITRDTSKNQFSLELSSVTAADTAVYYCARDLTHWYFDVWGQGTLVTVSS VL: DIVMTQSPDSLAVSLGERATINCKSSRSVDYYGIGFLNWYQQKPGQPPKLLIYATSHQGSGVPDRFSGSGSGTDFTLTISSLQAEDVAVYYCQQQKEVPPTFGGGTKVEIK ), measured koff is 0.00011

For this binder ( anti-GPNMB antibody GPN-85 (antibody, V domains shown) VH: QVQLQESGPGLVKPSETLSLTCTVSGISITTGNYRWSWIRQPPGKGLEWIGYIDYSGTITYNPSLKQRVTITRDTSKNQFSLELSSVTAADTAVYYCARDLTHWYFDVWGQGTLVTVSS VL: DIVMTQSPDSLAVSLGERATINCKSSRSVDYFGIGFLNWYQQKPGQPPKLLIYATSHQGSGVPDRFSGSGSGTDFTLTISSLQAEDVAVYYCQQQKEVPPTFGGGTKVEIK ), measured koff is 7.4e-05

The reported measurements were obtained from patent US20250270343A1.
